# TGT: H. sapiens mitochondrial 2-enoyl thioester reductase (HsETR1) (Homo sapiens, UniProt Q9BV79)
# Construct: isolated protein; construct and host not described in main text (assay details in Text S1); 1ZSY is the docked crystal structure
# Sequence (Q9BV79 54-373): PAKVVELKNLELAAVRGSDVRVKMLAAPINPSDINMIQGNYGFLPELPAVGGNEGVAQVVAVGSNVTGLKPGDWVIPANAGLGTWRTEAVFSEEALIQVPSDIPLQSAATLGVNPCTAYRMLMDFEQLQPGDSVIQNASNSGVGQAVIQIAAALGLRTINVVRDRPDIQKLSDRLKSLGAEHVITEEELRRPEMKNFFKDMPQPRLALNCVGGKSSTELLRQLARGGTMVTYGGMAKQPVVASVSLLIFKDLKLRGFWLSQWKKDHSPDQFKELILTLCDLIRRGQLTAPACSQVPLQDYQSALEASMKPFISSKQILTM
# METHOD_NOTES: enzyme inhibition assay (details in Text S1)
REPORTED_METRIC: IC50

Query block: What does the record list as IC50 for O=S(=O)(O)c1cc(O)c2c(O)c(N=Nc3cccc4ccccc34)c(S(=O)(=O)O)cc2c1 ?
Result block: ~33.5 µM

* * *

# TGT: T. brucei UDP-galactose 4′ epimerase (TbGalE) (Trypanosoma brucei, UniProt Q8T8E9)
# Construct: isolated protein; construct and host not described in main text (assay details in Text S1); 1GY8 is the docked crystal structure
# Sequence (Q8T8E9 1-395): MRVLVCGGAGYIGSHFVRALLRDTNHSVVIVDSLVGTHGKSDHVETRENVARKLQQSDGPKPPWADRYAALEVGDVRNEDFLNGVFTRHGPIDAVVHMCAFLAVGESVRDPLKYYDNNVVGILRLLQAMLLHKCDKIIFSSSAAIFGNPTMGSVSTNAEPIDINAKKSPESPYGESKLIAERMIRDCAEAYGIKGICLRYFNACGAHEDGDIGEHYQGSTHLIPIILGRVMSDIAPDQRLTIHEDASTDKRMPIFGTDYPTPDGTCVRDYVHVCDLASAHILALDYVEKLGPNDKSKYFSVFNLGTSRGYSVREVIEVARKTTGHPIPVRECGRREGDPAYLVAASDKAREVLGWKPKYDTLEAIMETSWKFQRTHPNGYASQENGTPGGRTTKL
# METHOD_NOTES: enzyme inhibition assay (details in Text S1)
REPORTED_METRIC: pIC50
Give only the number. pIC50 is defined as minus log10 of concentration in molar units.

Query block: Which pIC50 is reported with T. brucei UDP-galactose 4′ epimerase (TbGalE) (Trypanosoma brucei, UniProt Q8T8E9) for this entry: O=S(=O)(O)c1cc(O)c2c(O)c(N=Nc3cccc4ccccc34)c(S(=O)(=O)O)cc2c1 ?
Result block: 6.15
